test-description: folding stability dG unfold (combined trypsin and chymotrypsin); higher = more stable
What folding stability dG unfold was measured for each of the following?
Give bare numbers, in kcal/mol.

biopolymer-sequence	output-unit	folding stability dG unfold
SAGGSAGGSAGVKRIKDVRNPNGNKIRDVEVEEENDPNGNKYLTIKARHKNGNEQEHTLPSAGGSAGGSAGG [r11_810_TrROS]	kcal/mol	-0.18
SAMVLRLVVTVTGKIGDSLSTTTITREVSLEEYSEEELEALAEAVADAIRAANPEATVSLSILPEEELESAG [r14_723_JUSTAS]	kcal/mol	2.58

Provide reported folding stability dG unfold for each item, in the same order as listed.
1. SAGGSAGGSGKWMTAKELLKEFKPGKTIMIRMPPGTEIPPNIKPKGTFPGNGWMMIKIPPNDISAGGSAGGS [r12_356_TrROS]
2. SAGGSAMPADEVVEVREITDPATGKKVTVVRNKETGRYFVRVENPDGETEVFEVPGMTAEELEELASAGGSA [r15_295_TrROS_Hall]

Result:
1. -0.274
2. 2.51

* * *

test-description: folding stability dG unfold (combined trypsin and chymotrypsin); higher = more stable
We use 2 kcal/mol as the dividing line for folding stability dG unfold: on or above the line is criterion met, below is criterion not met.

biopolymer-sequence	answer-label
SANIQIMIEDWDPERGWIRISIQVDKGDPDKPITPELVNNIRELFRFRGIEVNIEVHPDGMVNIEIPIPSAG [r14_865_TrROS]	criterion met
SAGGMKPGEKVLVKITLKKEVFKNENGEEVKVEEKEILIELEVDSLEEALEALKKLLPPGAEIEVLPSAGGS [r16_282_TrROS_Hall]	criterion met
SAGGKITIEVTYNKETGEITIRITFNGKTIEIKIKVPGLSEEEVKKLAEELAKKLKEKYGIDKVEITSAGGS [r16_249_TrROS_Hall]	criterion met

Q: Would you say SAGGSGKEFEVEKAVFIPLPDDRKLIIVKTKTSIQIVEYNGEEWKLVATYPYKDVPKNPRELLKKKSAGGSA [r2_133_TrMRF] shows folding stability dG unfold at minimum 2 kcal/mol?
Result: criterion not met

Q: Would you say SAGGSADPIRTISGPVPLEEIEANIKKLLKENPNLDAAVFYIPEIGSKITIYFKNGKIVKIEIDLSSAGGSA [r15_166_TrMRF] shows folding stability dG unfold at minimum 2 kcal/mol?
Result: criterion met

Q: Would you say SAGGSAGGSGPKPRLIKLTFLLEPGKVEEFAQALRDAGFEIVSVEVEPLPDGGERATVTVRIDSAGGSAGGS [r12_905_TrMRF] shows folding stability dG unfold at minimum 2 kcal/mol?
Result: criterion met

Q: Would you say SAGGSAKPKIKITITRNEDGSLLVRITLPDGREVELSVDDIKALEDAGINLDDVEITEVEVSPEDLSAGGSA [r15_955_TrROS_Hall] shows folding stability dG unfold at minimum 2 kcal/mol?
Result: criterion met

* * *

test-description: folding stability dG unfold from trypsin proteolysis; higher = more stable
We use 1 kcal/mol as the dividing line for folding stability dG unfold: on or above the line is Yes, below is No.

Examples with answers:
biopolymer-sequence	answer-label
PLVLRLPDGAEAVRVEFFPERNTVVAFFRAPDRLLVVEVRFEPVGGGLLAPVRVRALPVPPTPEQLRLLAES [r1_154_TrMRF]	Yes
SPPVSTTTPVPDPENGVVVATVTLTTDPTTGEKTLILKSPEGKTKTVTLSPDETFPVEGLPKGLTATSSVSA [r9_1150_JUSTAS]	No
SAGWKLKIESPNGAEIEINPESGMIDVKNPDNGQPWSVMIPPENPGEINIFNPGDGEPLQPFKIDEIEPSAG [r5_761_TrROS]	No

Could you now consider this next sequence?
Q: Would you say SMPISAEELAELFPGVVEIKPEPDSTVITAKDPNGTNPVFTLSPAGTVTVTTYTPGSGTTTTTTIPTALLSA [r9_427_JUSTAS] shows folding stability dG unfold at minimum 1 kcal/mol?
Result: No

* * *

What folding stability dG unfold was measured for each of the following?
test-description: folding stability dG unfold from trypsin proteolysis; higher = more stable
One number for each entry, in kcal/mol.

biopolymer-sequence	output-unit	folding stability dG unfold
SAGGSAKTVTVEVTLEDGTKITVTVPEDMSEEERKALAQELAEELREKLRQLRELEKEGKEVRIEPSAGGSA [r15_704_TrROS_Hall]	kcal/mol	1.02

Provide reported folding stability dG unfold for each item, in the same order as listed.
1. SAGLRVVAVARTPDGSLVVVYELPDRLVVLRYTPTAITSVAVFPVPPVPPPPAVPRYYDPVTGRWVDGSAGG [r19_254_TrMRF]
2. SADYVLYLVTLKVRRKVGDKEYELEVPLLILAPEDELDESEIEAIAREAAAELGAEVEEVKIERLPLNASAG [r14_278_TrMRF]
3. SAGGMEIKEVKYDPEEGYLYIVVAAPPSVSPSEVVPAVVRAARELTGAEVEVEVDPETGYVVAKVPVSAGGS [r8_314_TrMRF]
4. SAGMKTYTITVPASEAEEAAEKAAEEIKKELGLPDSDTVEVTVTSYDPKTGTVTITITVTRPLPGGLSLSAG [r5_537_JUSTAS]

Result:
1: 1.71; 2: 3.94; 3: 1.43; 4: 2.74

Provide reported folding stability dG unfold for each item, in the same order as listed.
1. SAGGDNKPKVYPITFMIPPDDIKPGDEIPIDEIADNLGIPPNYTIKIKEVQPNPEDGYYMYRIEIVWSAGGS [r16_165_TrROS]
2. SAGGSAGGMTLTLELTLENGKKVRIEVEVNENGSLKVKITYPNGKKVEIEVNMSLEELLKKLLSSAGGSAGG [r6_808_TrROS_Hall]

Result:
1.57
3.75

* * *

test-description: folding stability dG unfold (combined trypsin and chymotrypsin); higher = more stable
What folding stability dG unfold was measured for each of the following?
Report the figure along with its unit, number first.

Observe how each entry below is paired with its result.
biopolymer-sequence	folding stability dG unfold
SAGGMPYRLDAVRVEVRPRPDGGPLLVVELTYPDGSRETAVFDSPEDLLRALENSPRFSEITLLPSVSAGGS [r16_757_TrMRF]	0.739 kcal/mol
SAGGPPVIRFPTAEIPASGTIEDIVAAIERATGEPLPEELVEQILNGKTIEEIIELLKKRGYPVEYLSAGGS [r16_601_JUSTAS]	3.33 kcal/mol
SAGGSAKIDIEVDPEDGYIRIKLEVQHNDEPVKATMWYPLPDDGMFIRIRFDMPNGKIEEIETIPPSAGGSA [r2_331_TrROS]	3.91 kcal/mol
SAGGMESTSIPLEFKFEGDEEKAKKKVEEEAKKIAEEKGIEIKIEVKFDPNKPTATVTILVKGKEVEESAGG [r13_845_JUSTAS]	-0.285 kcal/mol
SAGGSAGGSAEPPPLVVVTEVRTITVEIDLDDLSEEEREALENLDTVTITVTRVVVVPREDLSAGGSAGGSA [r18_127_TrROS_Hall]	1.84 kcal/mol
SAPKILKVETFPDGSIKVEIPLPETGAIVTITVDPDGNVVVEFYPPKSGKPVRKTIPGKTIEEVLKELGSAG [r14_760_TrMRF]	1.63 kcal/mol

# next sequence below
folding stability dG unfold recorded for this sequence, SAGGSIETIAERARDLARELNPDDGKEYPITIEIRDPENNRPIRIKISVRYDPDGKIKKVKFTKFEPYSAGG [r13_770_TrROS] , is 1.06 kcal/mol

* * *

test-description: folding stability dG unfold (combined trypsin and chymotrypsin); higher = more stable
readout: folding stability dG unfold

Observe how each entry below is paired with its result.
biopolymer-sequence	folding stability dG unfold
SAGGSAGGMVIEGRIKIVSPDGGEKEIPVVLFIPESFPDANLEELAEAIAKEILPPGYKADFEGSAGGSAGG [r6_821_TrMRF]	0.879 kcal/mol
SAGGSPIIRVKVTYYPPDGSVTVYLPADSVDELIDALNSVPDIPVTPTDGDTIIASTPDAIVEITVESSAGG [r13_143_TrMRF]	0.717 kcal/mol
SGNGEVEVEINIRIVIEPWDPNGEPDPVPIAEIPIKAEYDANDPEAVDFAVLDILDLLAPENPGYRIHIESA [r9_1112_TrROS]	0.731 kcal/mol

Provide reported folding stability dG unfold for each item, in the same order as listed.
1. SNLMIHFENPDNGVRVMIQINPEHGRIKLSVMYPNGKPVAEQTIEVDPNKIRLRFKVGGRKFEIEIEIPESA [r9_385_TrROS]
2. SAGGSAGGSTIREILDALPPGREIDVERHPNNGHYEISIQNPNGPNPTFQIDDPVTKEIAEWISAGGSAGGS [r12_174_TrROS]
3. SAGGSAGGSAGGSGLSFEIVEEREELLPDGRPRRRIFATLPGGRRLVIDDDGRITIDPDSAGGSAGGSAGGS [r4_111_TrMRF]
4. SKTIYFPIPNDDPEEAVEWIADKLLEEHGHKIKDVEIPHKNGYYVRIEVDPNNPKIDIEVWPYDPDGEPLSA [r9_173_TrROS]
5. SAGPPNDVKPIEIPFKMENGSNFRAEIWRDPGDGKVFVPIEYPNPWHRKRMQNWARELAEEHGIDRVEPSAG [r5_99_TrROS]

Result:
["5.62 kcal/mol", "-0.0634 kcal/mol", "0.897 kcal/mol", "0.534 kcal/mol", "< -1 kcal/mol"]
